Biological target: T1, SUMO-RRM K402A (Schizosaccharomyces pombe, UniProt Q9UTE3 388-540, K402A)
T1 sequence: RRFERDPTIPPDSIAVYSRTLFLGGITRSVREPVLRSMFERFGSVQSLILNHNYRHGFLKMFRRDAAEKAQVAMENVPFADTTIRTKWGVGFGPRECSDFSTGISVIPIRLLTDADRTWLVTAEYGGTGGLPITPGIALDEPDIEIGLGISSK
Experiment: fluorescence anisotropy; 25 mM Tris-HCl pH 8.0, 100 mM NaCl, 2 mM MgCl2, 1 mM DTT, 16.7% glycerol, 0.1% IGEPAL, 0.1 mg/ml tRNA, 2.5% RNasin, 25 C, 40 nM FAM-RNA
Details: protein: recombinant; tags: N-terminal His6-SUMO; single strand
MEASURED PROPERTY: Kd (nM)
One number for each entry, in nM.

Which measured Kd value corresponds to AUUAGUAAAA (ssRNA) [FAM-AUUAGUAAAA RNA] ?
2490

The values you see were collected from paper PMC5382271.
